Target: T1, gH/gL/UL128/UL130/UL131A pentamer complex expressed from MVA-PC in BHK-21 cells (human cytomegalovirus, UniProt P12824 24-743; P16832 31-278; P16837 28-171; P16772 1-214; F5HET4 19-129)
T1 construct: whole, on cells
Experiment: FC competition, MVA-PC BHK-21; unlabelled row Ab; competitor: biotinylated 54E11
Endpoint: Binding Inhibition (%)
One number for each entry, in %.

# Binder, Binding Inhibition (%)
measured = [
    ("13B5 (antibody, V domains shown, also called NAb 13B5; 1365) VH: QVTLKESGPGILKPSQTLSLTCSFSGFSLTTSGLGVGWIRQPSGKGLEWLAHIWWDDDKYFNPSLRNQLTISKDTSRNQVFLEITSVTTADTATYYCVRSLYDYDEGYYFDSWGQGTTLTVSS VL: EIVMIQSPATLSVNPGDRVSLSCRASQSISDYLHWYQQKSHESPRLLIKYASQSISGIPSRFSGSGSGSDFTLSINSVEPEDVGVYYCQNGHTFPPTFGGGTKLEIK", 0),
    ("1B2 (antibody, V domains shown, also called NAb 1B2) VH: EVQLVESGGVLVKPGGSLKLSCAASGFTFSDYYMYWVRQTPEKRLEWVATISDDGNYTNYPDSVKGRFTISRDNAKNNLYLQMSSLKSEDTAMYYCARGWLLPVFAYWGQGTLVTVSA VL: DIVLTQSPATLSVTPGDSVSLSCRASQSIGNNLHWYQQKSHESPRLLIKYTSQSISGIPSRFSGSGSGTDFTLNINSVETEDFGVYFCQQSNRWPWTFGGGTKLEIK", 0),
]

Query: Binding Inhibition (%) lookup needed for 54E11 (antibody, V domains shown, also called NAb 54E11) VH: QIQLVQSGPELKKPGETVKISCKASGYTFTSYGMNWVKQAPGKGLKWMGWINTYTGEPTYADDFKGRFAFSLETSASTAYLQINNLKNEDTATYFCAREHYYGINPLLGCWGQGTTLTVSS VL: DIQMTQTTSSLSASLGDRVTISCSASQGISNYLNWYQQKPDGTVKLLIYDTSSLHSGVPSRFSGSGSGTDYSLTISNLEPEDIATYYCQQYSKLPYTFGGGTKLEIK , thanks.
Response: 100

Where do these numbers come from? They come from patent US20180230200A1.
